Value source: paper PMC6522510

- Test system: CMS
- Design: species or system AML cell lines (8); Primary HTS, single concentration about 10 uM, Cell Titer Glo viability; log10 luminescence, per cent inhibition relative to cycloheximide control
- measurementParameters: 72 h, relative to cycloheximide control, log10 luminescence; inhibitor
readoutLabel: CMS %inh (%)
Form entry: value (%) — number only.

Provide one value: measured CMS %inh of CCCCCS(=O)(=O)CCCCCCCCCCn1c(-c2ccc(O)cc2)c(C)c2cc(O)ccc21 7.105

Supply CMS %inh value. Item: Nc1c(C(=O)c2cccc(C#CCN3CCOCC3)c2)cnn1-c1ccc(F)cc1 0.1973

Name the recorded CMS %inh of the compound listed here: CN1C(=O)CC(C)(c2ccccc2)C1=O (centres unmarked) [SJ000552432-1, METHSUXIMIDE] -2.292

Identify the reported CMS %inh for the following entry. O=C(Nc1n[nH]c2cc(-c3ccccc3)ccc12)C1CC1 3.176

Provide measured CMS %inh value, entry: NC(=O)c1sc(-n2cnc3ccc(C(F)(F)F)cc32)cc1OCc1ccccc1Br 15.36

Please report the measured CMS %inh for CS(=O)(=O)CCNCc1nc(-c2ccc3ncnc(Nc4ccc(OCc5cccc(C(F)(F)F)c5)cc4)c3c2)cs1 1.221

Fill in CMS %inh for record CC(CO)Nc1cc(-c2[nH]c3cccnc3c2-c2ccc(F)cc2)ccn1 (centres unmarked) 7.57

Let me know recorded CMS %inh for c1cnn2ncc(-c3ccnc(NCCCN4CCOCC4)n3)c2c1 , thanks. 12.25
